# Tested on: neutrophils
# measurement protocol: Neutrophil calcium flux assay (5-OXO-ETE-stimulated, Indo-1 fluorescence)
# Format: cell-based
# experimental setup: Neutrophil, 5-OXO-ETE-stimulated calcium flux
pIC50: −log10 of the molar value.
// reported pIC50 per item

>  <compound>
C[C@H](CC(=O)O)CC(=O)c1c(CCCCCCc2cccc(Cl)c2)n(C)c2ncc(Cl)cc12

>  <pIC50>
< 6.52

$$$$
>  <compound>
CC(C)COCCc1c(C(=O)C[C@H](C)CC(=O)O)c2cc(Cl)ccc2n1C

>  <pIC50>
< 6.52

$$$$
>  <compound>
CC(CNC(=O)c1c(CCCCOCc2cccc(Cl)c2)n(C)c2ncc(C(N)=O)cc12)C(=O)O (stereo not shown)

>  <pIC50>
< 6.52

$$$$
>  <compound>
COc1cc(COCCCCc2c(C(=O)CC(C)CC(=O)O)c3cc(C#N)cnc3n2C)ccc1F (stereo not shown)

>  <pIC50>
> 7.00

$$$$
>  <compound>
Cn1c(CCCCCCc2cccc(Cl)c2)c(C(=O)N2CC[C@H](C(=O)O)C2)c2cc(Cl)cnc21

>  <pIC50>
< 6.52

$$$$
>  <compound>
Cn1c(CCCCCCc2cccc(Cl)c2)c(C(=O)N2CC[C@H](C(=O)NS(C)(=O)=O)C2)c2cc(C#N)cnc21

>  <pIC50>
< 6.52

$$$$
>  <compound>
Cc1ccccc1COCCCCc1c(C(=O)CC(C)CC(=O)O)c2cc(C#N)cnc2n1C (stereo not shown)

>  <pIC50>
< 6.52

$$$$
